molecular target: Cytochrome P450 1A2 (Homo sapiens, UniProt P05177)
Sequence (P05177 whole entry): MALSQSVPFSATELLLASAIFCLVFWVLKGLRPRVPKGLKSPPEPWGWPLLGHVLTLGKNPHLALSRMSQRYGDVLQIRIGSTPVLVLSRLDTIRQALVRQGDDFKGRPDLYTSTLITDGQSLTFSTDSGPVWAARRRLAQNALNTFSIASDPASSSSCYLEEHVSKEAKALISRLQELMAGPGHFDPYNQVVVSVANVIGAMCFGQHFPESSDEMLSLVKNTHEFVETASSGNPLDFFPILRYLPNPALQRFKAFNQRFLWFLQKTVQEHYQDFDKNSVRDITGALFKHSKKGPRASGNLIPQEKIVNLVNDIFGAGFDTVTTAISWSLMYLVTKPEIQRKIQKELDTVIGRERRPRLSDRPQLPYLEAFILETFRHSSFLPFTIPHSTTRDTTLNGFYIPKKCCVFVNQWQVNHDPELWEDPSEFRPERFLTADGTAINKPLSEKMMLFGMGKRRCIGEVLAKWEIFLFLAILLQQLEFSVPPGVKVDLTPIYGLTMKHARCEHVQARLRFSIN
readout: IC50 (nM)
Give the value, in units of nM, as a plain number.

Reported IC50, compound O=C(Nc1cncc(Oc2cncnc2)n1)c1cc(Cl)ccn1 : ____ 600

====

assay: Drug level in Harlan CD1 mouse brain at 30 mg/kg, ip after 60 mins; type: ADME, organism-based; design: dose 30 mg/kg, route intraperitoneal; settings: read-out: Drug uptake
readout: concentration at 1 h
Note to self: number, then unit, no commentary.

Give its concentration at 1 h value. Item: O=C(Nc1cncc(Oc2cncnc2)n1)c1cc(Cl)ccn1 2800 nM

====

biological target: Metabotropic glutamate receptor 5 (Rattus norvegicus) (UniProt P31424); test: Negative allosteric modulator activity at rat mGlu5 expressed in HEK293A cells assessed as reduction in 100 uM glutamate-induced calcium mobilization at 30 uM; type: functional, cell-based; details: HEK293-A
Sequence (P31424 21-1203 limits assumed): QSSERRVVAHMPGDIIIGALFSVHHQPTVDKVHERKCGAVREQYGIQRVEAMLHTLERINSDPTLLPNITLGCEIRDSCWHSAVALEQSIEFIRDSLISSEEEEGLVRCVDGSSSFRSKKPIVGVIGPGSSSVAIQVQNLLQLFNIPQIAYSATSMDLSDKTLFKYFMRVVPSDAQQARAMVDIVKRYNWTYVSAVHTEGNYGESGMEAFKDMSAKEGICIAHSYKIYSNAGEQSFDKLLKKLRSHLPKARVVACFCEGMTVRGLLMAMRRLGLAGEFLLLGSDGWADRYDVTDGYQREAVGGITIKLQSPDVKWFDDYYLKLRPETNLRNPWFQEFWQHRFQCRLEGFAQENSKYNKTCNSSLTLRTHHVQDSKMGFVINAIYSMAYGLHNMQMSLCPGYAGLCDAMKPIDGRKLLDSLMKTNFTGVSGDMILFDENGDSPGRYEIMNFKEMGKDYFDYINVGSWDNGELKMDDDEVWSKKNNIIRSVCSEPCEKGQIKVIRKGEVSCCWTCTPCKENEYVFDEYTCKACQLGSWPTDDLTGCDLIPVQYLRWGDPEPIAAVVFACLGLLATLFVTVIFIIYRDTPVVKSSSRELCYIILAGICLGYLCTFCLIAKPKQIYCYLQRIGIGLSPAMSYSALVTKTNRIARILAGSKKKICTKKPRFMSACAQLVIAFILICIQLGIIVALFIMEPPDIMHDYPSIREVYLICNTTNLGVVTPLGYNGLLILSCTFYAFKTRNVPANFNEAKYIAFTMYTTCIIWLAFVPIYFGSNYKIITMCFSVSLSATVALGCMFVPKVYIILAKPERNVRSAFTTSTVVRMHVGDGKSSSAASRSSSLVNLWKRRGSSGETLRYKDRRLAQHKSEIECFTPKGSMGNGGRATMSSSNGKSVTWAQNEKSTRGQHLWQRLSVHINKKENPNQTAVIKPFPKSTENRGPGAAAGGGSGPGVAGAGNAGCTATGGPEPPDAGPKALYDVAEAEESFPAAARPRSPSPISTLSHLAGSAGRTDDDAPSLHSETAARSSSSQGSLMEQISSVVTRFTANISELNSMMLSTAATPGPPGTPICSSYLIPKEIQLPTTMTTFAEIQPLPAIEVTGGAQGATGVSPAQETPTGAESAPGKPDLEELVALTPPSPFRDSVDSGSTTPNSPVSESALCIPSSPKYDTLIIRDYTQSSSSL
readout: %max (%)
Write it as a number; the unit % goes unstated.

Solved entries:
{"compoundString": "O=C(Nc1cncc(Oc2cncc(F)c2)n1)c1cc(Cl)ccn1", "%max / %": 2}
{"compoundString": "O=C(Nc1cncc(Oc2cncnc2)n1)c1ccccc1", "%max / %": 12}
{"compoundString": "O=C(Nc1cncc(Oc2cncc(F)c2)n1)c1cccs1", "%max / %": 7.8}
{"compoundString": "Cc1nc(C(=O)Nc2cncc(Oc3cncc(F)c3)n2)cs1", "%max / %": 19}
{"compoundString": "CN(C)c1cccc(C(=O)Nc2cncc(Oc3cncc(F)c3)n2)c1", "%max / %": 52}

Identify the measured %max of O=C(Nc1cncc(Oc2cncnc2)n1)c1cc(Cl)ccn1 for Metabotropic glutamate receptor 5 (Rattus norvegicus) (UniProt P31424). 1.6
